Target: T1, human TIGIT (human, UniProt Q495A1 22-244)
T1 construct: Cell-surface form; also called huTIGIT
T1 sequence: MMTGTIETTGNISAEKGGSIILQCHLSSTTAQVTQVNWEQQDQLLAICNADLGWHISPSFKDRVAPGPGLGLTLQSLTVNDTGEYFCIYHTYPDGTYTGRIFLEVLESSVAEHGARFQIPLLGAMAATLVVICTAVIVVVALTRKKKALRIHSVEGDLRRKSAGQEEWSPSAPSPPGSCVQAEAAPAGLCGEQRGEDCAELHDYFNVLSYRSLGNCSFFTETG
Experiment: flow cytometry on CHO-S cells expressing human TIGIT, competitor huCD155-Fc-Alexa 647, at 1.7 µg/mL
The following binders are listed with their measured % inhibition values.
All answers are understood in %, so give the number only.

BINDER	% inhibition / %
39D2 (antibody, V domains shown, Fully human XenoMouse antibody, tested as hybridoma supernatant or purified mAb) VH: QVQLVQSGAEVKKPGASVKVSCKASGYTFTGYYIHWVRQAPGQGLEWMGWISPTSGATGYAQNFQGRVTMTRDTSITTAYMELSRLRSDDTAVYYCARDSNSVLYYYGMDVWGQGTTVTVSS VL: DIEMTQAPSSLSASVGDRVTITCRASQTIRRYLNWYQQKPGKAPKLLIYAASSLQNGVPSRFSGSVSGTDFTLTISSLQPEDFATYYCQQSYSTPLTFGGGTKVGIRR	100

Pending binder:
Lab book: % inhibition of 55G7 (antibody, V domains shown, Fully human XenoMouse antibody, tested as hybridoma supernatant or purified mAb) VH: QVQLVESGGGVVQPGRSLRLSCAASGFTFSSYGMHWVRQAPGKGLEWVALIWFDESNIYYADSVKGRFTISRDNSKNTLYLQMNSLRAEDTAVYFCARGYDLLTGYYNFDFWGLGTLVTVSA VL: QAGLTQPPSVSKGLRQTATLTCTGNTNNVGNRGAAWLQQHQGHPPKLLSYRNNNRPSGISERLSASRSGNTASLTITGLQPEDEADYYCSAWDSSLSAWVFGGGTKLTVLG noted as 99
